The measured values listed here are drawn from ChEMBL document CHEMBL3120090.

assay: Binding affinity to HIV-1 FSS RNA in HBS buffer at pH 7.4 by surface plasmon resonance analysis; design: species or system Human immunodeficiency virus 1; conditions: read-out: Kd
Can you tell me pKd for the items I'm about to list?
A value of pKd is the negative decimal logarithm of a concentration given in moles per litre.

Quick one: pKd for `CCc1nc2cc3ccccc3cc2cc1C(=O)N[C@@H](C/C=C\C[C@H](N)C(=O)N1CCC[C@H]1C(=O)N[C@@H](Cc1ccccc1)C(=O)NCCCN)C(=O)N1CCC[C@H]1C(=O)N[C@@H](Cc1ccccc1)C(=O)NCCCN` ? 5.56

Quick one: pKd for `CCc1nc2cc3ccccc3cc2cc1C(=O)N[C@@H](C/C=C/C[C@H](N)C(=O)N1CCC[C@H]1C(=O)N[C@@H](Cc1ccccc1)C(=O)NCCCN)C(=O)N1CCC[C@H]1C(=O)N[C@@H](Cc1ccccc1)C(=O)NCCCN` ? 4.68

Quick one: pKd for `C=CC[C@H](NC(=O)c1cc2cc3ccccc3cc2nc1CC)C(=O)N1CCC[C@H]1C(=O)N[C@@H](Cc1ccccc1)C(=O)NCCCN` ? 4.71

* * *

assay: Binding affinity to HIV-1 FSS RNA in HBS buffer at pH 7.4 assessed as dissociation rate by surface plasmon resonance analysis; design: species or system Human immunodeficiency virus 1
Can you tell me Dissociation rate constant (koff) for the items I'm about to list?
Give the quantity in ×10⁻² /s, number only.

Quick one: Dissociation rate constant (koff) for `C=CC[C@H](NC(=O)c1cc2cc3ccccc3cc2nc1CC)C(=O)N1CCC[C@H]1C(=O)N[C@@H](Cc1ccccc1)C(=O)NCCCN` ? 2.25

Quick one: Dissociation rate constant (koff) for `CCc1nc2cc3ccccc3cc2cc1C(=O)N[C@@H](C/C=C\C[C@H](N)C(=O)N1CCC[C@H]1C(=O)N[C@@H](Cc1ccccc1)C(=O)NCCCN)C(=O)N1CCC[C@H]1C(=O)N[C@@H](Cc1ccccc1)C(=O)NCCCN` ? 1.21

* * *

tested on: HEK293FT; assay: Binding affinity to HIV-1 FSS RNA transfected in HEK293FT cells after 36 hrs by Renilla/firefly luciferase reporter gene assay; type: cell-based; details: Human immunodeficiency virus 1

| cpd-smiles | system-tested | Activity |
| --- | --- | --- |
| CCc1nc2cc3ccccc3cc2cc1C(=O)N[C@@H](C/C=C/C[C@H](NC(=O)c1cc2cc3ccccc3cc2nc1CC)C(=O)N1CCC[C@H]1C(=O)N[C@@H](Cc1ccccc1)C(=O)NCCCN)C(=O)N1CCC[C@H]1C(=O)N[C@@H](Cc1ccccc1)C(=O)NCCCN | HEK293FT | Dose-dependent effect |
| CCc1nc2cc3ccccc3cc2cc1C(=O)N[C@@H](CSSC[C@H](NC(=O)c1cc2cc3ccccc3cc2nc1CC)C(=O)N1CCC[C@H]1C(=O)N[C@@H](Cc1ccccc1)C(=O)NCCCN)C(=O)N1CCC[C@H]1C(=O)N[C@@H](Cc1ccccc1)C(=O)NCCCN | HEK293FT | 25% |
| CCc1nc2cc3ccccc3cc2cc1C(=O)N[C@@H](C/C=C\C[C@H](NC(=O)c1cc2cc3ccccc3cc2nc1CC)C(=O)N1CCC[C@H]1C(=O)N[C@@H](Cc1ccccc1)C(=O)NCCCN)C(=O)N1CCC[C@H]1C(=O)N[C@@H](Cc1ccccc1)C(=O)NCCCN | HEK293FT | Dose-dependent effect |

* * *

assay: Binding affinity to HIV-1 FSS RNA in HBS buffer at pH 7.4 by surface plasmon resonance analysis; design: species or system Human immunodeficiency virus 1; details: read-out: Kd
Can you tell me Kd for the items I'm about to list?
Give the quantity in µM, number only.

Quick one: Kd for `CCc1nc2cc3ccccc3cc2cc1C(=O)N[C@@H](C/C=C/C[C@H](NC(=O)c1cc2cc3ccccc3cc2nc1CC)C(=O)N1CCC[C@H]1C(=O)N[C@@H](Cc1ccccc1)C(=O)NCCCN)C(=O)N1CCC[C@H]1C(=O)N[C@@H](Cc1ccccc1)C(=O)NCCCN` ? 0.089

Quick one: Kd for `CCc1nc2cc3ccccc3cc2cc1C(=O)N[C@@H](C/C=C\C[C@H](NC(=O)c1cc2cc3ccccc3cc2nc1CC)C(=O)N1CCC[C@H]1C(=O)N[C@@H](Cc1ccccc1)C(=O)NCCCN)C(=O)N1CCC[C@H]1C(=O)N[C@@H](Cc1ccccc1)C(=O)NCCCN` ? 0.102

Quick one: Kd for `CCc1nc2cc3ccccc3cc2cc1C(=O)N[C@@H](CSSC[C@H](NC(=O)c1cc2cc3ccccc3cc2nc1CC)C(=O)N1CCC[C@H]1C(=O)N[C@@H](Cc1ccccc1)C(=O)NCCCN)C(=O)N1CCC[C@H]1C(=O)N[C@@H](Cc1ccccc1)C(=O)NCCCN` ? 0.741

Quick one: Kd for `CCc1nc2ccccc2cc1C(=O)N[C@@H](C/C=C/C[C@H](NC(=O)c1cc2ccccc2nc1CC)C(=O)N1CCC[C@H]1C(=O)N[C@@H](Cc1ccccc1)C(=O)NCCCN)C(=O)N1CCC[C@H]1C(=O)N[C@@H](Cc1ccccc1)C(=O)NCCCN` ? 4.66

* * *

Can you tell me Ka for the items I'm about to list?
system: Human immunodeficiency virus 1; experiment: Binding affinity to HIV-1 FSS RNA in HBS buffer at pH 7.4 assessed as association rate by surface plasmon resonance analysis
Give the quantity in ×10³ /M/s, number only.

Quick one: Ka for `C=CC[C@H](NC(=O)c1cc2cc3ccccc3cc2nc1CC)C(=O)N1CCC[C@H]1C(=O)N[C@@H](Cc1ccccc1)C(=O)NCCCN` ? 1.16

Quick one: Ka for `CCc1nc2cc3ccccc3cc2cc1C(=O)N[C@@H](C/C=C\C[C@H](N)C(=O)N1CCC[C@H]1C(=O)N[C@@H](Cc1ccccc1)C(=O)NCCCN)C(=O)N1CCC[C@H]1C(=O)N[C@@H](Cc1ccccc1)C(=O)NCCCN` ? 4.58

Quick one: Ka for `CCc1nc2cc3ccccc3cc2cc1C(=O)N[C@@H](C/C=C/C[C@H](N)C(=O)N1CCC[C@H]1C(=O)N[C@@H](Cc1ccccc1)C(=O)NCCCN)C(=O)N1CCC[C@H]1C(=O)N[C@@H](Cc1ccccc1)C(=O)NCCCN` ? 7.71

Quick one: Ka for `CCc1nc2ccccc2cc1C(=O)N[C@@H](C/C=C/C[C@H](NC(=O)c1cc2ccccc2nc1CC)C(=O)N1CCC[C@H]1C(=O)N[C@@H](Cc1ccccc1)C(=O)NCCCN)C(=O)N1CCC[C@H]1C(=O)N[C@@H](Cc1ccccc1)C(=O)NCCCN` ? 1.62

* * *

Can you tell me Ka for the items I'm about to list?
system: Human immunodeficiency virus 1; assay: Binding affinity to HIV-1 FSS RNA in HBS buffer at pH 7.4 assessed as association rate by surface plasmon resonance analysis

Quick one: Ka for `CCc1nc2cc3ccccc3cc2cc1C(=O)N[C@@H](C/C=C/C[C@H](NC(=O)c1cc2cc3ccccc3cc2nc1CC)C(=O)N1CCC[C@H]1C(=O)N[C@@H](Cc1ccccc1)C(=O)NCCCN)C(=O)N1CCC[C@H]1C(=O)N[C@@H](Cc1ccccc1)C(=O)NCCCN` ? 3.99 ×10⁴ /M/s

Quick one: Ka for `CCc1nc2cc3ccccc3cc2cc1C(=O)N[C@@H](CSSC[C@H](NC(=O)c1cc2cc3ccccc3cc2nc1CC)C(=O)N1CCC[C@H]1C(=O)N[C@@H](Cc1ccccc1)C(=O)NCCCN)C(=O)N1CCC[C@H]1C(=O)N[C@@H](Cc1ccccc1)C(=O)NCCCN` ? 1.07 ×10⁴ /M/s

Quick one: Ka for `CCc1nc2cc3ccccc3cc2cc1C(=O)N[C@@H](C/C=C\C[C@H](NC(=O)c1cc2cc3ccccc3cc2nc1CC)C(=O)N1CCC[C@H]1C(=O)N[C@@H](Cc1ccccc1)C(=O)NCCCN)C(=O)N1CCC[C@H]1C(=O)N[C@@H](Cc1ccccc1)C(=O)NCCCN` ? 4.25 ×10⁴ /M/s
